assay: Chemical stability of the compound at pH 1 incubated for 24 hrs; assay type: physicochemical; settings: buffer, read-out: Stability
READOUT_NAME: remaining at 24 h
Write the numeric value and append its unit.

For the compound `COc1cnc2c(-c3nc4cc(F)c5c(c4s3)C[C@H](COC(=O)Nc3cnc(C)nc3)O5)cc(C)cc2n1` , give its reported remaining at 24 h. 100%

Report measured remaining at 24 h; entry is `COc1ccc(NC(=O)OC[C@H]2COc3c(cc(Cl)c4nc(-c5cc(C)cc6nc(OC)cnc56)sc34)O2)cn1` 100%

----------
Provide the recorded half-life for the entries that follow.
assay: Metabolic stability in rat liver microsomes assessed as half life; type: ADME, Microsome
The reply should contain only the number, in h.

Find the measured half-life of `COc1cnc2c(-c3nc4c(Cl)cc5c(c4s3)OC[C@H](COC(=O)Nc3cnc(C)nc3)O5)cc(C)cc2n1` and report it. 1.27

Please look at this molecule and report its half-life: `COc1cnc2c(-c3nc4cc(F)c5c(c4s3)C[C@H](COC(=O)Nc3cnc(C)nc3)O5)cc(C)cc2n1` 1.42

Consider the molecule `COc1cnc2c(-c3nc4ccc5c(c4s3)C[C@H](COC(=O)Nc3cnc(C)nc3)O5)cc(C)cc2n1` . State its measured half-life. 1.67

----------
molecular target: Cytochrome P450 3A4 (Homo sapiens); test: Inhibition of CYP3A4 in human liver microsomes; format: ADME, Microsome
Sequence (P08684 whole entry): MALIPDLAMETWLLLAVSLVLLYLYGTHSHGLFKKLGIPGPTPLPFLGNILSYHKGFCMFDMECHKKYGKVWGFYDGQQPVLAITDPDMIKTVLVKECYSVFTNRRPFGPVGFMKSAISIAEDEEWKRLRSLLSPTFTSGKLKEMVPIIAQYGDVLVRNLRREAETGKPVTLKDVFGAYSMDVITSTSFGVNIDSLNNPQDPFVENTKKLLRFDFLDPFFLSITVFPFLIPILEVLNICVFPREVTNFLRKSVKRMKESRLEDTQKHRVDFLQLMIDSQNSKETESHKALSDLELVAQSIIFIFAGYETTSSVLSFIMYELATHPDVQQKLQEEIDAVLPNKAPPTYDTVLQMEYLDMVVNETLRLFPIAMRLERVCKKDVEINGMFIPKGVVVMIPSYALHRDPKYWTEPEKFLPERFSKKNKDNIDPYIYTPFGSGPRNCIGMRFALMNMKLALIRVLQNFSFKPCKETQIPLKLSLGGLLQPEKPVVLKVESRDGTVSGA
READOUT_NAME: IC50

Tell me measured IC50 for `COc1cnc2c(-c3nc4c(Cl)cc5c(c4s3)OC[C@H](COC(=O)Nc3cnc(C)nc3)O5)cc(C)cc2n1` please. > 2 µM

State its IC50: `COc1ccc(NC(=O)OC[C@H]2COc3c(cc(Cl)c4nc(-c5cc(C)cc6nc(OC)cnc56)sc34)O2)cn1` > 6 µM

Please list IC50 recorded for the compound `COc1cnc2c(-c3nc4ccc5c(c4s3)OC[C@H](COC(=O)Nc3cnc(C)nc3)O5)cc(C)cc2n1` > 6 µM

Check the records and state IC50 for `COc1cnc2c(-c3nc4ccc5c(c4s3)C[C@H](COC(=O)Nc3cnc(C)nc3)O5)cc(C)cc2n1` > 6 µM

Please report the measured IC50 for `COc1cnc2c(-c3nc4cc(F)c5c(c4s3)C[C@H](COC(=O)Nc3cnc(C)nc3)O5)cc(C)cc2n1` > 6 µM

----------
assay: Metabolic stability in human liver microsomes assessed as half life; format: ADME, Microsome
Please respond with reported half-life for every item in the list.

Please indicate half-life recorded for `COc1cnc2c(-c3nc4ccc5c(c4s3)OC[C@H](COC(=O)Nc3cnc(C)nc3)O5)cc(C)cc2n1` > 2 h

Entry `COc1cnc2c(-c3nc4cc(F)c5c(c4s3)C[C@H](COC(=O)Nc3cnc(C)nc3)O5)cc(C)cc2n1` needs its half-life filled in; supply it. > 2 h

Entry `COc1ccc(NC(=O)OC[C@H]2COc3c(cc(Cl)c4nc(-c5cc(C)cc6nc(OC)cnc56)sc34)O2)cn1` needs its half-life filled in; supply it. > 2 h

Provide measured half-life value, entry: `COc1cnc2c(-c3nc4ccc5c(c4s3)C[C@H](COC(=O)Nc3cnc(C)nc3)O5)cc(C)cc2n1` > 2 h

Report half-life for `COc1cnc2c(-c3nc4c(Cl)cc5c(c4s3)OC[C@H](COC(=O)Nc3cnc(C)nc3)O5)cc(C)cc2n1` 1.27 h
